Sourced from ChEMBL document CHEMBL1201862

Tested on: HOP-18
Test: NCI tumour cell line growth inhibition, 48 h
Calls of active or inactive are those of the source. Cut-off read from the data, not from the text of the source: active = GI50 up to about 1.1 µM and inactive = higher.

COMPOUND: CC1=CC(O)(c2ccc(-c3ccccc3Cl)cc2)OC1=O (centres undefined)
GI50: > 100 µM (inactive)
//
COMPOUND: COC(=O)/C=C/c1cc(OC)c(OC)c(OC)c1
GI50: > 100 µM (inactive)
//
COMPOUND: O=NN(CCCl)C(=O)NCCCl [CARMUSTINE]
GI50: 91.4 µM (inactive)
//
COMPOUND: C=C1C(=O)OC2/C=C(/C)C3CC(O)C(C)(CC(OC(=O)/C(C)=C/C)C12)O3 (centres undefined)
GI50: 17.4 µM (inactive)

* * *

System: 786-0
Assay: NCI tumour cell line growth inhibition, 48 h
Activity calls are given as the source filed them. No stated cut-off is given here; in the data, active = GI50 up to about 1.1 µM and inactive = higher.
Parameter GI50: see the listing below.
PROPERTY: GI50

COMPOUND: CN(C)Cc1cc(/N=N/c2ccc(Cl)cc2)cc(CN(C)C)c1O
REPORTED: 5.53 µM (inactive)
--
COMPOUND: Cc1[nH]c(C)c(CN(C)C)c1CN(C)C
REPORTED: > 100 µM (inactive)
--
COMPOUND: O=C1CN(c2cccc(C(F)(F)F)c2)C(=O)CN1CCN1CC(=O)N(c2cccc(C(F)(F)F)c2)CC1=O
REPORTED: > 100 µM (inactive)
--
COMPOUND: C=C(Cl)C(Cl)(CBr)CCC(Br)C(C)(C)Br (stereo unspecified)
REPORTED: 1.14 µM (inactive)
--
COMPOUND: O=Cc1ccc2c(c1-c1c(C=O)ccc3c1OCO3)OCO2
REPORTED: > 100 µM (inactive)
--
COMPOUND: O=C(Sc1sc(=S)sc1SC(=O)c1ccccc1)c1ccccc1
REPORTED: > 100 µM (inactive)

* * *

Test system: SNB-19
Experiment: NCI tumour cell line growth inhibition, 48 h
Activity calls are given as the source filed them. No stated cut-off is given here; in the data, active = GI50 up to about 1.1 µM and inactive = higher.
Parameter GI50: see the listing below.
PROPERTY: GI50

SMILES DATA: C[N+]1(C)CCC(C#N)(c2ccccc2)CC1
TESTED ON: SNB-19
PROPERTY: GI50
REPORTED: > 100 µM (inactive)

SMILES DATA: CCOC(=O)C1=C(c2ccccc2)NC(c2ccccc2)=C(C(=O)OCC)c2c1c(=O)cc[nH]c2=O
TESTED ON: SNB-19
PROPERTY: GI50
REPORTED: > 100 µM (inactive)

SMILES DATA: CCN(CC)CCNc1ccc2nnn3c4ccc(OC)cc4c(=O)c1c23
TESTED ON: SNB-19
PROPERTY: GI50
REPORTED: 11.4 µM (inactive)

* * *

Test system: MOLT-4
Assay: NCI tumour cell line growth inhibition, 48 h
Activity calls are given as the source filed them. No stated cut-off is given here; in the data, active = GI50 up to about 1.1 µM and inactive = higher. Where a SMILES comes first, the peptide text is derived from it. The star is where a group is joined. Boc = CC(C)(C)OC(=O)*; OSu = O=C1CCC(=O)N1O*
PROPERTY: GI50

MOLECULE: OC(c1ccccc1)c1c(-c2ccccc2)oc(-c2ccccc2)c1C(O)c1ccccc1 (stereo not drawn)
TESTED ON: MOLT-4
REPORTED: 5.06 µM (inactive)
--
MOLECULE: CC(/C=N/N(C)C1=NCCCCN1)=N/N(C)C1=NCCCCN1
TESTED ON: MOLT-4
REPORTED: > 100 µM (inactive)
--
MOLECULE: Nc1ncnc2c1ncn2C1OC(CSCc2ccc(Cl)cc2)C(O)C1O (stereo not drawn)
TESTED ON: MOLT-4
REPORTED: 10.7 µM (inactive)
--
MOLECULE: CNc1nc(=O)c(C#N)c(-c2ccc(C)cc2)s1
TESTED ON: MOLT-4
REPORTED: > 100 µM (inactive)
--
MOLECULE: [N-]=[N+]=CC(=O)COC(=O)c1ccccc1
TESTED ON: MOLT-4
REPORTED: > 100 µM (inactive)
--
MOLECULE: C=CCOC(=O)C1C2OC3(C(C(=O)OC)=C2C(=O)OC)c2ccccc2CCC13 (stereo not drawn)
TESTED ON: MOLT-4
REPORTED: > 10 µM (inactive)
--
MOLECULE: O=C(c1ccccc1)N1C2C3CC(OCc4ccccc4)(OCc4ccccc4)C(O3)C21 (stereo not drawn)
TESTED ON: MOLT-4
REPORTED: > 100 µM (inactive)
--
MOLECULE: COC(CN(C)C(=O)C(C)NC(=O)c1ccccc1)OC (stereo not drawn)
TESTED ON: MOLT-4
REPORTED: > 100 µM (inactive)
--
MOLECULE: COc1ccc(-n2c(=O)[nH]n(C(C)=O)c2=O)cc1
TESTED ON: MOLT-4
REPORTED: > 100 µM (inactive)
--
MOLECULE: S=C(NCCCCCCNC(=S)Nc1c2ccccc2nc2ccccc12)Nc1c2ccccc2nc2ccccc12
TESTED ON: MOLT-4
REPORTED: 32.4 µM (inactive)
--
MOLECULE: Fc1ccc2nc3n(c2c1)C(c1c(Cl)cccc1Cl)SC3 (stereo not drawn)
TESTED ON: MOLT-4
REPORTED: 6.71 µM (inactive)
--
MOLECULE: COC(=O)C1CCOC(C)N1C(=O)OC(C)(C)C (stereo not drawn)
TESTED ON: MOLT-4
REPORTED: > 100 µM (inactive)
--
MOLECULE: Nn1c(SCC(=O)O)nc2ccccc2c1=O
TESTED ON: MOLT-4
REPORTED: > 100 µM (inactive)
--
MOLECULE: CC(NC(=O)C(NC(=O)OC(C)(C)C)C(C)C)C(=O)NCC(=O)ON1C(=O)CCC1=O (stereo not drawn) (Boc-Val-Ala-Gly-OSu; configuration not given here)
TESTED ON: MOLT-4
REPORTED: 45.9 µM (inactive)
--
MOLECULE: Clc1ccc(C2=NCON=C2c2ccc(Cl)cc2)cc1
TESTED ON: MOLT-4
REPORTED: 15.9 µM (inactive)
--
MOLECULE: O=C(/C=C1/Nc2ccc([N+](=O)[O-])cc2NC1O)c1cccc([N+](=O)[O-])c1 (stereo not drawn)
TESTED ON: MOLT-4
REPORTED: 64.4 µM (inactive)
--
MOLECULE: COc1ccc(C2C3=C(COC3=O)OC(C)(C)Oc3cc4c(cc32)OCO4)cc1OC (stereo not drawn)
TESTED ON: MOLT-4
REPORTED: 34.8 µM (inactive)
--
MOLECULE: CC(=O)OC/C=C/Cn1nc(Br)c(=O)[nH]c1=O
TESTED ON: MOLT-4
REPORTED: > 100 µM (inactive)
